These entries and their values trace back to patent US11066414B2.

# test system: Human Cot (Homo sapiens (Human))
# Sequence (P41279 30-397): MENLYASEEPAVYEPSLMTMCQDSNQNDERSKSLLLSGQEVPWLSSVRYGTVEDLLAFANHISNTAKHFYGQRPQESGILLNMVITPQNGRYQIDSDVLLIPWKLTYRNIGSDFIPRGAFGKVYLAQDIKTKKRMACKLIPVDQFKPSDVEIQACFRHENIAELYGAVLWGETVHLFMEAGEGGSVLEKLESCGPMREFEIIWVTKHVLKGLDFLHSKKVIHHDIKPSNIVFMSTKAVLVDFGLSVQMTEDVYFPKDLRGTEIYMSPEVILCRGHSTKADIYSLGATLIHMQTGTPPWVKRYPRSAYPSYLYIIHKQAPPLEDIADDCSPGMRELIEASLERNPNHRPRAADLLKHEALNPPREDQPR
# assay protocol: High Throughput Cot Biochemical Assay
# assay setup: IC50 HTRF, Cot HTRF (TR-FRET) biochemical assay
property: IC50 (nM)

>>> endpoint_result("Cc1ncsc1[C@H](Nc1cc(Cl)c2ncc(C#N)c(Nc3cccc(Cl)c3F)c2c1)c1cn(C(C)C)nn1")
6
>>> endpoint_result("COCCn1cc([C@@H](Nc2cc(Cl)c3ncc(C#N)c(Nc4ccc(F)c(Cl)c4)c3c2)c2cscn2)nn1")
3
>>> endpoint_result("Cc1nc(F)ccc1[C@H](Nc1cc(Cl)c2ncc(C#N)c(NCC(C)(C)CO)c2c1)c1cn(C2(C(F)(F)F)CC2)nn1")
20
>>> endpoint_result("N#Cc1cnc2c(Cl)cc(N[C@@H](c3cccnc3)c3c[nH]nn3)cc2c1Nc1ccc(F)c(Cl)c1")
4
